- measured_on: human RET on cells (MCF7/SRE-Luc; HEK293/hGFRα3/hRET/SRE-Luc; HEK293/hGFRα1/hRET/SRE-Luc) (human), P07949
- test_name: cell-based or functional assay
In plain terms, low 293/hGFRα3/hRET/SRE-Luc IC50, meaning strictly below 10 nM, gives TRUE, and everything else gives FALSE.

Some solved cases for reference:
[[record]]
binder = "H4H8066P (antibody, human IgG4, V domains shown) VH: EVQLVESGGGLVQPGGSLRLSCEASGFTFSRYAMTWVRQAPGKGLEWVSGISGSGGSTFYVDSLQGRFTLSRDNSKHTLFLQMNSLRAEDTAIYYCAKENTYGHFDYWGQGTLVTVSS VL: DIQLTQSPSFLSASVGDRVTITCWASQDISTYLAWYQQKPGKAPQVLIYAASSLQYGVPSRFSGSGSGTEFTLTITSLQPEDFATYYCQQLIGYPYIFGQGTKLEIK"
label_value = "TRUE"

[[record]]
binder = "H4H8080P (antibody, human IgG4, V domains shown) VH: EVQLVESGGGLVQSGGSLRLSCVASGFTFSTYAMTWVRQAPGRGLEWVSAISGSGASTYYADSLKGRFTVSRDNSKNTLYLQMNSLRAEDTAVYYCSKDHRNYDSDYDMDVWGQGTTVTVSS VL: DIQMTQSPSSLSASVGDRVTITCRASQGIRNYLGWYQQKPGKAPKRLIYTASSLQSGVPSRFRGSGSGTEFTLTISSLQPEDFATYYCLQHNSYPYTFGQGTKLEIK"
label_value = "FALSE"

[[record]]
binder = "H4H8083P (antibody, human IgG4, V domains shown) VH: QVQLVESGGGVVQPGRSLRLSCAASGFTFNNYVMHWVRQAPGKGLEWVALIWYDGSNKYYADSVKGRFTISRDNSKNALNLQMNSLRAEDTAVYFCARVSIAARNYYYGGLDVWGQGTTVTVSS VL: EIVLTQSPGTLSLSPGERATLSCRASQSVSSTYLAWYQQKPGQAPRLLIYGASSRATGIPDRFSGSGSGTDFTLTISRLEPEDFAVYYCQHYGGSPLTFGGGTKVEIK"
label_value = "FALSE"

[[record]]
binder = "H4H8084P (antibody, human IgG4, V domains shown) VH: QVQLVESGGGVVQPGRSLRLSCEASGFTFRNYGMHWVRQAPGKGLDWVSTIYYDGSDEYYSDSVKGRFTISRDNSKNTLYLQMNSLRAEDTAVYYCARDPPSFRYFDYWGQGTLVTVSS VL: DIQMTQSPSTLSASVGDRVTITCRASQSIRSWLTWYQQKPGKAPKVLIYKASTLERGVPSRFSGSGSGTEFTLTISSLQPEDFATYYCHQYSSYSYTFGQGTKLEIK"
label_value = "TRUE"


QUERY: Hello, I'm reviewing records and need to know if 293/hGFRα3/hRET/SRE-Luc IC50 of H4H8046P (antibody, human IgG4, V domains shown) VH: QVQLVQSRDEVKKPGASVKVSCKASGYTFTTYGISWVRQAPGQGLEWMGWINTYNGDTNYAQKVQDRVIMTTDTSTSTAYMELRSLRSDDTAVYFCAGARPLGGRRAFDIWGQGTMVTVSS VL: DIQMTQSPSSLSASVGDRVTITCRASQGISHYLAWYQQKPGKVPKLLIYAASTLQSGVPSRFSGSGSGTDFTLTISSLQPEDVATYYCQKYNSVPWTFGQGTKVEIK is below 10 nM. Could you check?
RESULT: FALSE
